- Test Target: T1, Macaca fascicularis IL2Rγ extracellular domain expressed with a C-terminal myc-myc-hexahistidine tag (Macaca fascicularis)
- T1 construct: whole entry is the tagged construct; also called mfIL-2Rg-MMH
- T1 chain: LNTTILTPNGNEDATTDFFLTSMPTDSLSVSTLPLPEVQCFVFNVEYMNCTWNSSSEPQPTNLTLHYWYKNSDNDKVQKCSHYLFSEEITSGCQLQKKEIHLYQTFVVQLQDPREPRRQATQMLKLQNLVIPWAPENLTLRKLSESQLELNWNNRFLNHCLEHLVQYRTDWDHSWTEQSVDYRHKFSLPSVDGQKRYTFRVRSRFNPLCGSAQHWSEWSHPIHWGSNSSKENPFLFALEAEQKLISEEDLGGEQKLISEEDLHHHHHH
- Assay Protocol: SPR Biacore 4000, anti-hFc-captured mAb, 37 C
Each entry below carries its recorded koff.
# value in s⁻¹; strip the unit string

For orientation, consider the following solved cases.
{"Binder": "H4H12863P (antibody, human IgG4 S228P, kappa, V domains shown, fully human anti-IL2Rgamma mAb, human IgG4 Fc) VH: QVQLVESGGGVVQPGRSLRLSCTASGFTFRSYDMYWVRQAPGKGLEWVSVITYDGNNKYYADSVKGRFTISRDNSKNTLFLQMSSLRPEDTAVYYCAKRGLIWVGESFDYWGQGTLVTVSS VL: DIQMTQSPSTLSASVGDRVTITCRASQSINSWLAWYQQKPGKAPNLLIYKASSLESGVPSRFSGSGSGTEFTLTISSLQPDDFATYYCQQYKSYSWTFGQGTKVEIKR", "Outcome Measure": "koff", "Unit Annotation": "s⁻¹", "Result Number": 0.00147}
{"Binder": "H4H12884P (antibody, human IgG4 S228P, kappa, V domains shown, fully human anti-IL2Rgamma mAb, human IgG4 Fc) VH: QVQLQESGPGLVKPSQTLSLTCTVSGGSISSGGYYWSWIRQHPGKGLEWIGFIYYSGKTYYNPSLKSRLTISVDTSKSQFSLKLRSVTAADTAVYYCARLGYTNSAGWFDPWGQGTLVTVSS VL: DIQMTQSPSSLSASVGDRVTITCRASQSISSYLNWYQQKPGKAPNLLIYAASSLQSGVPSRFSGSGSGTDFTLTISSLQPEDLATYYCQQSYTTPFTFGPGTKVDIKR", "Outcome Measure": "koff", "Unit Annotation": "s⁻¹", "Result Number": 0.00321}

(Q) For the binder H4H13538P (antibody, human IgG4 S228P, kappa, V domains shown, fully human anti-IL2Rgamma mAb, human IgG4 Fc) VH: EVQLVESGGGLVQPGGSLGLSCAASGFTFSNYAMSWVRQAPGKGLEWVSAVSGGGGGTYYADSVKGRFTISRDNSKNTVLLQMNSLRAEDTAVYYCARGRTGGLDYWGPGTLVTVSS VL: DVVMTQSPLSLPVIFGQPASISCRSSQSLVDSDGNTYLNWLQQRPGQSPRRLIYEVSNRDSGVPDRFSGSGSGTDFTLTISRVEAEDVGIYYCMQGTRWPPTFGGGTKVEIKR , what koff is on record?
(A) 0.000932

(Q) Same lookup for H4H12871P (antibody, human IgG4 S228P, kappa, V domains shown, fully human anti-IL2Rgamma mAb, human IgG4 Fc; also called REGN9434) VH: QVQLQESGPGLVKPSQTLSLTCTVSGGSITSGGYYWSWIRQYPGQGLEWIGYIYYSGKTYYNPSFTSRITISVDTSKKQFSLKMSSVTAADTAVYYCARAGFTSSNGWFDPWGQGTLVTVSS VL: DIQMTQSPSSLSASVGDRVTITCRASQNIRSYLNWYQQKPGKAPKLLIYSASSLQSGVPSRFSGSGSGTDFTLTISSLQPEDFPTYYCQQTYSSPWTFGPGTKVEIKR , please.
(A) 0.00261

(Q) Lookup H4H12889P (antibody, human IgG4 S228P, kappa, V domains shown, fully human anti-IL2Rgamma mAb, human IgG4 Fc; also called REGN7257) VH: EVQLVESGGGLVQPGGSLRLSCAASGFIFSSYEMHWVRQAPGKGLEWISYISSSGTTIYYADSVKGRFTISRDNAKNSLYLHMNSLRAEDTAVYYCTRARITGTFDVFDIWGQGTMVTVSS VL: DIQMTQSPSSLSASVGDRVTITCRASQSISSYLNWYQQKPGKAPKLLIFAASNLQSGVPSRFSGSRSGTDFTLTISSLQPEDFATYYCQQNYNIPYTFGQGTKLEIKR
(A) 0.00171

(Q) What would you report for H4H12899P (antibody, human IgG4 S228P, kappa, V domains shown, fully human anti-IL2Rgamma mAb, human IgG4 Fc) VH: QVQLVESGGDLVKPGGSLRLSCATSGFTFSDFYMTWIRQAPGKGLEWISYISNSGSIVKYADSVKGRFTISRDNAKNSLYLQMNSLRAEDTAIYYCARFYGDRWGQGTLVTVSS VL: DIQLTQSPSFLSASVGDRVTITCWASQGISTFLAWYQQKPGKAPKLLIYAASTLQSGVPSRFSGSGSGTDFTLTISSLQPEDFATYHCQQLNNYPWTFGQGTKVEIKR ?
(A) 0.00216

(Q) Please do the same for H4H13541P (antibody, human IgG4 S228P, kappa, V domains shown, fully human anti-IL2Rgamma mAb, human IgG4 Fc) VH: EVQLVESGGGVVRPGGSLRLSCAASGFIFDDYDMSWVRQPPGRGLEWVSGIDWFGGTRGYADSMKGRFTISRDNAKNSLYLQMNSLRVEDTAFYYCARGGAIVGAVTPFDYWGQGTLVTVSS VL: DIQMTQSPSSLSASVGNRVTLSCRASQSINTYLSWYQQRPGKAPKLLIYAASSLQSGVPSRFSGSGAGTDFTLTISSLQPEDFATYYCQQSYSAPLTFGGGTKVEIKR as well.
(A) 0.000755
